Tested on: HS 578T breast
Assay: NCI-60 one-dose screen, 48 h (100 = growth as untreated, 0 = no growth, -100 = all killed)
Conditions: 10 µM unless noted
Compounds without any hit were thinned out: in the full panel of roughly 83,000, 20% have a hit.
Please respond with reported growth for every item in the list.
All answers are understood in %, so give the number only.

Report measured growth on HS 578T breast; entry: "S=C(Nc1ccc(-c2nc(N3CCOCC3)c3cccn3n2)cc1)Nc1cccnc1" 12.8

Report measured growth on HS 578T breast; entry: "Cc1nc2c(=O)[nH]c(SCC(=O)Nc3cccc(F)c3)nc2[nH]c1=O" 101

Report measured growth on HS 578T breast; entry: "O=C(Nc1nn(-c2ccc(Cl)cc2Cl)nc1-c1ccccc1)c1ccccc1" 105

Report measured growth on HS 578T breast; entry: "CN1CCN(C(=O)OCc2ccc3c(Cl)cc(Cl)c(O)c3n2)CC1" 80.2

Report measured growth on HS 578T breast; entry: "CCCCCCNC(=O)Oc1ccc(/C(=C(/C)Cc2ccc(OC)cc2)c2ccc(OCCCN(C)C)cc2)cc1" 52.9

Report measured growth on HS 578T breast; entry: "CCSc1nc(NC)c2cc(-c3ccc(C(F)(F)F)cc3)ccc2n1" 101

Report measured growth on HS 578T breast; entry: "CS(=O)(=O)C1=CN(CCO)C(=O)N2CCCN=C12" 97

Report measured growth on HS 578T breast; entry: O=C1N(Cc2ccccc2Cl)c2ccccc2C12NN=C(c1cccc(Cl)c1)S2 (stereo not given) 3.21

Report measured growth on HS 578T breast; entry: "CO/N=C(/C)c1ccc(NC(=O)CSc2nnc(-c3ccncc3)n2-c2ccccc2)cc1" -0.835

Report measured growth on HS 578T breast; entry: "Cc1nnc(-n2c(O)cc(=O)n(-c3ccccc3)c2=S)nc1/C=C/c1ccc(N(C)C)cc1" 47.8

---

Test system: UACC-257 melanoma
Assay: NCI-60 one-dose screen, 48 h
Conditions: 10 µM unless noted
Compounds without any hit were thinned out: in the full panel of roughly 83,000, 20% have a hit. The source made the active and inactive calls. Rule for the calls: active = growth percent below 10; inactive = the rest.
Pick one: active, inactive

Please let me know the test result on file for "Clc1ccc2c(c1)N(c1ncnc3ccc(-c4cnc5[nH]ncc5c4)cc13)CC2" . inactive

Please let me know the test result on file for "Oc1c(Cl)cc(Cl)c2ccc(Cn3cc(-c4cc(C(F)(F)F)cc(C(F)(F)F)c4)nn3)nc12" . inactive

Please let me know the test result on file for "CCSc1nc(NC)c2cc(-c3ccc(C(F)(F)F)cc3)ccc2n1" . inactive

Please let me know the test result on file for "O=C(CCCCCCN1CC(=O)N2[C@H](c3cc(Br)cs3)c3[nH]c4ccccc4c3C[C@H]2C1=O)NO" . inactive

Please let me know the test result on file for "CCN1CCN(c2cc(C(=O)Nc3nc(-c4cc(OC)c(OC)c(OC)c4)cs3)cc(C(F)(F)F)c2)CC1" . inactive

Please let me know the test result on file for "CCc1nc2c(=O)[nH]cnc2o1" . inactive

Please let me know the test result on file for "CN(C)c1ccc(/C=C/C(=O)c2ccc(-n3cc(CN4CCN(c5cc6c(cc5F)c(=O)c(C(=O)O)cn6C5CC5)CC4)nn3)cc2)cc1" . inactive

Please let me know the test result on file for "O=C(c1ccc(Cl)cc1)N1CCN(c2ccnc3cc(Cl)ccc23)CC1" . inactive

Please let me know the test result on file for "COc1ccc(-c2nnc3n(C)c(=O)c4ccccc4n23)cc1N" . inactive

Please let me know the test result on file for "Cc1nc2sc(C(=O)Nc3cccc(Cl)c3C)c(N)c2cc1C(=O)c1ccccc1" . inactive

Please let me know the test result on file for CC1=C(C(=O)OC(C)C)C(c2ccc3c(c2)OCO3)NC(=S)N1 (stereo not given) . inactive

Please let me know the test result on file for "CCN1CCN(Cc2cn(CC(=O)Nc3ccc4c(ccn4Cc4ccccc4)c3)nn2)CC1" . inactive

Please let me know the test result on file for "Cc1ccc(Cc2cnc(NC(=O)c3cc(Br)cs3)s2)cc1" . inactive

Please let me know the test result on file for "COc1cc(-n2cc(-c3cc(O)c(C/C=C(\C)CCC=C(C)C)c(O)c3)nn2)cc2c1O[C@]1(C)CC[C@@H](O)C(C)(C)[C@H]1C2" . inactive

Please let me know the test result on file for COC(C(=O)[C@@H](O)[C@@H](C)O)[C@@H]1Cc2cc3cc(O[C@H]4C[C@@H](O[C@H]5C[C@@H](O)[C@H](O)C(C)O5)[C@H](O)C(C)O4)c(C)c(O)c3c(O)c2C(=O)[C@H]1O[C@H]1C[C@@H](O[C@H]2C[C@@H](O[C@H]3C[C@@H](O)[C@H](OC)C(C)O3)[C@@H](O)C(C)O2)[C@H](O)C(C)O1 (stereo not given in full) . active

Please let me know the test result on file for CN(C)CCCC1(c2ccc(F)cc2)OCc2cc(-c3cncc4ccccc34)ccc21 (stereo not given) . active

Please let me know the test result on file for "CCCCCCCCn1ccc2cc(NC(=O)Cn3cc(CN4CCCCC4)nn3)ccc21" . active

Please let me know the test result on file for CCN1C(=O)N(CC)C2C1NN=c1s/c(=C\c3ccc(Cl)cc3Cl)c(=O)n12 (stereo not given) . inactive

Please let me know the test result on file for "COc1cc(CNS(=O)(=O)c2ccc(C)cc2)ccc1OCc1cn(-c2ccc(Br)cc2)nn1" . inactive

Please let me know the test result on file for "N=C(N)c1ccc(-c2ccc(-c3ccc(F)cc3)o2)o1" . inactive
